- Test system: MS2 coat protein
- test_details: apparent KD of MS2 coat protein; designed switch direction (-1 OFF switch, 1 ON switch): -1; higher = weaker reporter binding
- reported_conditions: input ligand: none
We use 70 nM as the dividing line for apparent KD of MS2 coat protein: on or above the line is T, below is F.

>  <sequence>
AAAUAGCAAGUUUGAUCCUACAUGAGGAUCACCCAUGUGUUCGUCUUAUUUGAAGACAACACAAAAGUGUUGUCUUA [Omei Mir OFFv1 B1] (Eterna round: R97, puzzle: Sensor, turn-off variant 1)

>  <experimental_system>
MS2 coat protein

>  <group>
T

$$$$
>  <sequence>
AGAUCACAUGAGGAUCACCCAUGUCAGGAUAUCAUCAUUGAAGCCUCGGCUUCAAUGAUGAGAAGGGACAUAAU [E1/2-B2] (Eterna round: R97, puzzle: Exclusion 1)

>  <experimental_system>
MS2 coat protein

>  <group>
T

$$$$
>  <sequence>
AAAUCGGUAGAGGAUAUUGUACAGGAAACGGUGCGAGAAGGUUGCACAUGAGGAUCACCCAUGUUUAAUUGCGA [EX6 #49] (Eterna round: R97, puzzle: Exclusion 6)

>  <experimental_system>
MS2 coat protein

>  <group>
F

$$$$
>  <sequence>
GUCAGCUCGUCAGGAUAUGAACAUGAGGAUCACCCAUGUAAGAUCAAGCUGCUUCGGCAGCAAGUUCAGAAGGGACGAGCUGAC [ENG2/10-B1] (Eterna round: R96, puzzle: Exclusion NG 2)

>  <experimental_system>
MS2 coat protein

>  <group>
T

$$$$
>  <sequence>
UAACAAGCUUUAAGAUCCUACAUGAGGAUCACCCAUGUGCUCGUCUUAUAACGUACUGUGACGAAAGUCACGGUACG [JL TOV1 3.17] (Eterna round: R97, puzzle: Sensor, turn-off variant 1)

>  <experimental_system>
MS2 coat protein

>  <group>
T

$$$$
>  <sequence>
CGUCAGAUCGCAGGAUAUGUUAGAUGAGCACAGAAUGUCCAGACCACAUGAGGAUCACCCAUGUAACAGAAGGGCGGUCUACGG [Eternabot solution 29] (Eterna round: R96, puzzle: Exclusion NG 2)

>  <experimental_system>
MS2 coat protein

>  <group>
T

$$$$
>  <sequence>
AAUAAAGUAGGAUAUACAUGAGGAUCACCCAUGUCCCACCCGUUACCUAUGACCAUAUGUAGAAGGACUAAUAA [Exy#3] (Eterna round: R97, puzzle: Exclusion 3)

>  <experimental_system>
MS2 coat protein

>  <group>
F

$$$$
>  <sequence>
CAUGUCCAACGAGGAUAUGGGACAGGAGGUGUACCAGAAGGCGUACGGACAUGAGGAUCACCCAUGUCGCGCGGUGCGAUGUGG [15th something] (Eterna round: R96, puzzle: Exclusion NG 1)

>  <experimental_system>
MS2 coat protein

>  <group>
F

$$$$
>  <sequence>
CCGCUGUCAGGAUAUCGUGCAUACAACGAAAGUUCUAUGUGCGAGAAGGGACAUGAGGAUCACCCAUGUUUGCG [Omei Ex4 A20] (Eterna round: R97, puzzle: Exclusion 4)

>  <experimental_system>
MS2 coat protein

>  <group>
F

$$$$
>  <sequence>
GUAAACGCAGAGGAUAUUUCAGAUCAAAGCUGCAAAGAAGGCUGCACAUGAGGAUCACCCAUGUGGUCUUCAAG [Mat - Exclusion 6 - JL Mod - D10] (Eterna round: R97, puzzle: Exclusion 6)

>  <experimental_system>
MS2 coat protein

>  <group>
F

$$$$
>  <sequence>
CUAUCUAGAGGAUAUACGAGAUCGAAAGAUCGGCGAUCCCUACAUGAGGAUCACCCAUGUAGAAGGCUAGAUAG [Mod 16 - Jieux - Exclusion 2] (Eterna round: R97, puzzle: Exclusion 2)

>  <experimental_system>
MS2 coat protein

>  <group>
F

$$$$
>  <sequence>
ACAUGAGGAUCACCCAUGUUUGGCUGGUUUUCUCCGGCUGUCGAGGAUAUAGUACGGUAUCCGCGCUAGAAGGUGAGGGUCGGC [Aenatbe mod 2] (Eterna round: R96, puzzle: Exclusion NG 3)

>  <experimental_system>
MS2 coat protein

>  <group>
F

$$$$
>  <sequence>
CUCGUGUGAGGAUAUUCACACCCGUUGCAGCGACGGACAAAGAAGAAGGCACAUGAGGAUCACCCAUGUAAAGA [Onan] (Eterna round: R97, puzzle: Exclusion 4)

>  <experimental_system>
MS2 coat protein

>  <group>
T

$$$$
>  <sequence>
UCCUCACAUGAGGAUCACCCAUGUCAGGAUAUCCAGUUGGGCCUCUGUAGAGGCGCCAGGAGAAGGGAUAAGGA [Ceenerso] (Eterna round: R97, puzzle: Exclusion 1)

>  <experimental_system>
MS2 coat protein

>  <group>
F

$$$$
>  <sequence>
GCUUGUCUUUAGGAUAUCGUGAGGCCCUUCAUACGAGAAGGAAAGACAUGAGGAUCACCCAUGUCGGGUAUCAC [Eternabot (L1) Solution 28] (Eterna round: R97, puzzle: Exclusion 6)

>  <experimental_system>
MS2 coat protein

>  <group>
F

$$$$
>  <sequence>
UAUUAGCAAGUAAGAUCCCACAUGAGGAUCACCCAUGUGCUCGUCAUAUCACGUACUGUGAGGAAACUCACGGUACG [Sensor-V1 #85] (Eterna round: R97, puzzle: Sensor, turn-off variant 1)

>  <experimental_system>
MS2 coat protein

>  <group>
T

$$$$
>  <sequence>
UAUUCGCAAGCGAGAUCCCACAUGAGGAUCACCCAUGUGCUCGUCUUAUAAGGUACUGUGACGAUAGUCACGGUACC [Mat - Sensor, turn-off var - Eli Mod - D81] (Eterna round: R97, puzzle: Sensor, turn-off variant 1)

>  <experimental_system>
MS2 coat protein

>  <group>
F

$$$$
>  <sequence>
CCCGUGUGAGGAUAUCGUUCACUUGGCGAAAGUCGAGUGGACGAGAAGGUACAUGAGGAUCACCCAUGUGCGGG [-36.1, -35.4 kcal, A 24%] (Eterna round: R97, puzzle: Exclusion 4)

>  <experimental_system>
MS2 coat protein

>  <group>
T

$$$$
